Property: inhibition at 0.1 µM; scope: individual molecules
- SUBJECT_OF_TEST: LNCaP type mutant androgen receptor (AR) (Homo sapiens, UniProt P10275, T878A)
- Sequence (P10275 1-920 T878A): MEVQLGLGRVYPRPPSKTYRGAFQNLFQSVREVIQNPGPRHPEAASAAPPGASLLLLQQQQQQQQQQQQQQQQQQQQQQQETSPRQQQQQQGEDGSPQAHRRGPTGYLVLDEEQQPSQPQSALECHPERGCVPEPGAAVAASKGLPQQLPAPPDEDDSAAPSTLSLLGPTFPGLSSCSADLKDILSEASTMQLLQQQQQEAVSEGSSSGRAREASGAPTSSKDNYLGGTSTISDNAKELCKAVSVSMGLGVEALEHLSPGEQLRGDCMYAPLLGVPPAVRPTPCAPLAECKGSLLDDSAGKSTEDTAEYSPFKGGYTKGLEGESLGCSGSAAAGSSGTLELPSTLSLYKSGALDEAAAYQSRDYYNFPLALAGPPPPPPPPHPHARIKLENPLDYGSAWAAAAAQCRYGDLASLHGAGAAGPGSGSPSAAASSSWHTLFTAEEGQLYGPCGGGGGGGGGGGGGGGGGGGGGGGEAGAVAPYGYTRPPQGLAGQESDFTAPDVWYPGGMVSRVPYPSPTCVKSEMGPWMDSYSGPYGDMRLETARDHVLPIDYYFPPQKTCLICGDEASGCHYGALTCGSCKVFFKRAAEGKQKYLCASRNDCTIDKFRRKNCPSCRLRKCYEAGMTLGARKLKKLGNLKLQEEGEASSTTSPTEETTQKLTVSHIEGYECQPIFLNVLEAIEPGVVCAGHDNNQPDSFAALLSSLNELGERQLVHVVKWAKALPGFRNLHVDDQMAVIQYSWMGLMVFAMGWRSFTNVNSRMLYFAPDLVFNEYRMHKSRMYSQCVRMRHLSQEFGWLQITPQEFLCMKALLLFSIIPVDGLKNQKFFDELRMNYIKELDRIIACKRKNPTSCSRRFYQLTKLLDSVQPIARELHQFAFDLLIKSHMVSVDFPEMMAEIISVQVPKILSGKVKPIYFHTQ
- PROTOCOL_DESCRIPTION: AR-binding inhibition test (LNCaP type)
- STUDY_CONDITIONS: read-out: Inhibition rate (%) at 100 nM LNCaP type
Counter-ions that a name gives are not always drawn.
Dear colleague, please return just the value in %, with no unit written.

Some entries whose results are on file:
MOLECULE | QUANTITY | OBSERVED_RESULT
C[C@H]1CCCN1c1ccc(C#N)c2ccccc12 | inhibition at 0.1 µM | 99
COC[C@H]1CCCN1c1ccc(C#N)c2ccccc12 [Compound 45, hydrochloride] | inhibition at 0.1 µM | 110
N#Cc1ccc(N2CCCCC2)c2ccsc12 | inhibition at 0.1 µM | 95

*Q* # get_value(readout='inhibition at 0.1 µM', item= N#Cc1ccc(N2CCC(F)C2)c2ccccc12 (stereo not shown) )
*A* 92

*Q* # get_value(readout='inhibition at 0.1 µM', item= C[C@H]1[C@H](O)CCN1c1ccc(C#N)c2ccccc12 )
*A* 98

*Q* # get_value(readout='inhibition at 0.1 µM', item= N#Cc1ccc(N2CCCC(CO)C2)c2ccccc12 (stereo not shown) )
*A* 91

*Q* # get_value(readout='inhibition at 0.1 µM', item= N#Cc1ccc(N2CCC(O)C2)c2ccccc12 (stereo not shown) )
*A* 79
